TGT: w.t. NRAS/RAF1 (Homo sapiens)
Construct: His6-SUMO (N, cleaved yes)
Sequence (P01111 with tags, fused parts or gaps): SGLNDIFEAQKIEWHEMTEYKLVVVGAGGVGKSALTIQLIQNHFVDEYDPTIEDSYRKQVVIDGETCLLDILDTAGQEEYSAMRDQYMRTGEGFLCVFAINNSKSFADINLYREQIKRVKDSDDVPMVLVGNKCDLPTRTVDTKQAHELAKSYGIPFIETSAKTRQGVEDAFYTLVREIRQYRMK
PROCEDURE DETAILS: Protein-protein interaction (PPI) HTRF assay NRAS/RAF1
SETUP CONDITIONS: Table 3; wtNRAS/RAF1
pIC50: −log10 of the molar value.
Listed below: pIC50 values for each entry.
RECORDED METRIC: pIC50

- CN(C)C(=O)c1nn2c(c1Cl)CN(c1nc(OC[C@@]34CCCN3C[C@H](F)C4)nc(N3CC4(CCc5sc(N)c(C#N)c54)C3)c1C#N)CCC2: < 4.00
- CN(C)C(=O)c1nn2c(c1Cl)CN(c1nc(OC[C@@]34CCCN3C[C@H](F)C4)nc(N3CC4(CCCc5sc(N)c(C#N)c54)C3)c1C#N)CCC2: < 4.00

* * *

Test system: AGS cells (KRAS G12D), phospho-ERK
PROCEDURE DETAILS: pERK In Cell Western (ICW) assay (Method B), AGS cells
Format: cell-based
SETUP CONDITIONS: Homo sapiens, Table 4, pERK, 3 hours, read-out: ICW-AGS
RECORDED METRIC: IC50

* N#Cc1c(N)sc2c1C1(CC2)CN(c2nc(OC[C@@]34CCCN3C[C@H](F)C4)nc(N3C[C@H]4CC[C@@H](C3)N4)c2F)C1 | 10 to 100 nM
* N#Cc1c(N)sc2c1C1(CC2)CN(c2nc(OC[C@@]34CCCN3C[C@H](F)C4)nc(N3CCC[C@]4(C3)NC(=O)NC4=O)c2F)C1 | 1000 to 10000 nM
* N#Cc1c(N2C[C@H]3COC[C@@H](C2)N3)nc(OCC2(CN3CCOCC3)CC2)nc1N1CC2(CCc3sc(N)c(C#N)c32)C1 | 100 to 1000 nM
* N#Cc1c(N2CCCC3(C2)NC(=O)NC3=O)nc(OC[C@@]23CCCN2C[C@H](F)C3)nc1N1CC2(CCc3sc(N)c(C#N)c32)C1 (stereo partly drawn) | 1000 to 10000 nM
* CC(=O)c1nn2c(c1Cl)CN(c1nc(OC[C@@]34CCCN3C[C@H](F)C4)nc(N3CC4(CCc5sc(N)c(C#N)c54)C3)c1C#N)CCC2 | 10 to 100 nM
* CN(C)CC1(COc2nc(N3C[C@H]4CC[C@@H](C3)N4)c(C#N)c(N3CC4(CCc5sc(N)c(C#N)c54)C3)n2)COC1 | 100 to 1000 nM
* CN1CCN(CC2(COc3nc(N4C[C@H]5CC[C@@H](C4)N5)c(C#N)c(N4CC5(CCc6sc(N)c(C#N)c65)C4)n3)CC2)CC1=O | 10 to 100 nM
* CC1CC2(CN(c3nc(OC[C@@]45CCCN4C[C@H](F)C5)nc(N4CCCn5nc(C(=O)N(C)C)c(Cl)c5C4)c3C#N)C2)c2c1sc(N)c2C#N (stereo partly drawn) | 10 to 100 nM
* CN(C)C(=O)c1nn2c(c1Cl)CN(c1nc(OC[C@@]34CCCN3C[C@H](F)C4)nc(N3CC4(CCCCc5sc(N)c(C#N)c54)C3)c1C#N)CCC2 | 10 to 100 nM
* N#Cc1c(N2C[C@H]3CC[C@@H](C2)N3)nc(OCC2(CN3CCOCC3)CC2)nc1N1CC2(CCCc3sc(N)c(C#N)c32)C1 | 10 to 100 nM
* CN(C)C(=O)c1nn2c(c1Cl)CN(c1nc(OCC34CCCN3CCC4)nc(N3CC4(CCc5sc(N)c(C#N)c54)C3)c1C#N)CCC2 | 100 to 1000 nM
* N#Cc1c(N2C[C@H]3CC[C@@H](C2)N3)nc(OC[C@@]23CCCN2C[C@H](F)C3)nc1N1CC2(CCc3sc(N)c(C#N)c32)C1 | 10 to 100 nM

* * *

TGT: GST-tagged KRAS-G12D (2-169) (Homo sapiens, UniProt P01116, G12D)
Construct: GST-tagged KRAS-G12D (2-169, Reaction Biology, MSC-11-539); purchased Reaction Biology MSC-11-539 (KRAS G12D); MSC-11-502 (SOS1cat)
Sequence (P01116 2-169 isoform P01116-2 G12D): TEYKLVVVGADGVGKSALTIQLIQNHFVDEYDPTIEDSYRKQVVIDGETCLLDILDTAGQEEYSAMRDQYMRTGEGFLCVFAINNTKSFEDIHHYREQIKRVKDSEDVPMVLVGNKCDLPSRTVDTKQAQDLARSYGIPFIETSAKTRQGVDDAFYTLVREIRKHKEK
PROCEDURE DETAILS: Nucleotide exchange assay (NEA), SOS-mediated, HTRF, KRAS G12D
Format: biochemical
SETUP CONDITIONS: Table 4; IC50 extracted at 30 min
RECORDED METRIC: IC50

• N#Cc1c(N2C[C@H]3CC[C@@H](C2)N3)nc(OCC2(CN3CCS(=O)(=O)CC3)CC2)nc1N1CC2(CCc3sc(N)c(C#N)c32)C1 [Compound 95] = < 10 nM
• N#Cc1c(N2C[C@H]3CC[C@@H](C2)N3)nc(OCC2(CN3CCOCC3)CC2)nc1N1CC2(C1)c1ccccc1CCC2O (stereo partly drawn) [Compound 53] = 100 to 1000 nM
• N#Cc1c(N2C[C@H]3COC[C@@H](C2)N3)nc(OCC2(CN3CCOCC3)CC2)nc1N1CC2(CCc3sc(N)c(C#N)c32)C1 [Compound 42] = < 10 nM

* * *

TGT: GST-tagged KRAS-G12D (2-169) (Homo sapiens, UniProt P01116, G12D)
Construct: GST-tagged KRAS-G12D (2-169, Reaction Biology, MSC-11-539); purchased Reaction Biology MSC-11-539 (KRAS G12D); MSC-11-502 (SOS1cat)
PROCEDURE DETAILS: Nucleotide exchange assay (NEA), SOS-mediated, HTRF, KRAS G12D
Type: biochemical
SETUP CONDITIONS: Table 4; IC50 extracted at 30 min
Source text: This activity is tightly regulated by GTPase activating proteins (GAPs) and guanine nucleotide exchange factors (GEFs). […] Homogenous time resolved fluorescence (HTRF) was used to detect SOS-mediated binding of a fluorescent GTP analog, GTP-DY-647P1 (Jena Biosciences NU-820-647P1) to GST-tagged KRAS-G12D (2-169, Reaction Biology, MSC-11-539) or to GST-tagged KRAS-G12V (2-169, Reaction Biology, MSC-11-540). […]
RECORDED METRIC: IC50

- Cn1c(-c2cc3n(n2)CCCN(c2nc(OC[C@@]45CCCN4C[C@H](F)C5)nc(N4CC5(CCc6sc(N)c(C#N)c65)C4)c2C#N)C3)nc2ccccc21: 10 to 100 nM
- C[C@@]1(O)CCCN(c2nc(OC[C@@]34CCCN3C[C@H](F)C4)nc(N3CC4(CCc5sc(N)c(C#N)c54)C3)c2F)C1: 100 to 1000 nM
- CN(C)C(=O)c1cc2n(n1)CCCN(c1nc(OC[C@@]34CCCN3C[C@H](F)C4)nc(N3CC4(CCc5sc(N)c(C#N)c54)C3)c1C#N)C2: < 10 nM
- CN(C)CC(F)(F)COc1nc(N2C[C@H]3CC[C@@H](C2)N3)c(C#N)c(N2CC3(CCc4sc(N)c(C#N)c43)C2)n1: < 10 nM
- N#Cc1c(N2C[C@H]3CC[C@@H](C2)N3)nc(OCc2ccccc2)nc1N1CC2(CCc3sc(N)c(C#N)c32)C1: < 10 nM
- N#Cc1c(N2C[C@H]3CC[C@@H](C2)N3)nc(OCC2(CN3CCC(F)CC3)CC2)nc1N1CC2(CCc3sc(N)c(C#N)c32)C1: 10 to 100 nM
- N#Cc1c(N)sc2c1C1(CC2)CN(c2nc(OC[C@@]34CCCN3C[C@H](F)C4)nc(N3CCC[C@]4(C3)NC(=O)NC4=O)c2F)C1: < 10 nM
- N#Cc1c(N2CC3(CCc4sc(N)c(C#N)c43)C2)nc(OC[C@@]23CCCN2C[C@H](F)C3)nc1N1CCC[C@]2(C1)NC(=O)NC2=O: < 10 nM
- CN1CCN(CC2(COc3nc(N4C[C@H]5CC[C@@H](C4)N5)c(C#N)c(N4CC5(CCc6sc(N)c(C#N)c65)C4)n3)CC2)CC1=O: < 10 nM
- CN(C)C(=O)c1nn2c(c1Cl)CN(c1nc(OC[C@@]34CCCN3C[C@H](F)C4)nc(N3CC4(CCc5sc(N)c(C#N)c54)C3)c1C#N)CC(F)(F)C2: < 10 nM
- N#Cc1c(N2CCSc3ncccc3C2)nc(OC[C@@]23CCCN2C[C@H](F)C3)nc1N1CC2(CCc3sc(N)c(C#N)c32)C1: 10 to 100 nM
- N#Cc1cnc(OCC2(CN3CCOCC3)CC2)nc1N1CC2(CCCc3sc(N)c(C#N)c32)C1: 10 to 100 nM
- CS(=O)(=O)c1cc2n(n1)CCCN(c1nc(OC[C@@]34CCCN3C[C@H](F)C4)nc(N3CC4(CCc5sc(N)c(C#N)c54)C3)c1C#N)C2: < 10 nM
- N#Cc1c(N2C[C@H]3CC[C@@H](C2)N3)nc(OCC2(CN3CCOCC3)CC2)nc1N1CC2(CCCc3sc(N)c(C#N)c32)C1: < 10 nM
- N#Cc1c(N)sc2c1C1(CC2)CN(c2nc(OC[C@@]34CCCN3C[C@H](F)C4)nc(N3C[C@H]4CC[C@@H](C3)N4)c2F)C1: < 10 nM
- Cn1c(-c2nn3c(c2Cl)CN(c2nc(OC[C@@]45CCCN4C[C@H](F)C5)nc(N4CC5(CCc6sc(N)c(C#N)c65)C4)c2C#N)CCC3)nc2ccccc21: < 10 nM
- Cc1n[nH]nc1COc1nc(N2C[C@H]3CC[C@@H](C2)N3)c(C#N)c(N2CC3(CCc4sc(N)c(C#N)c43)C2)n1: 10 to 100 nM
- CN(C)C(=O)c1nn2c(c1Cl)CN(c1nc(OC[C@@]34CCCN3C[C@H](F)C4)nc(N3CC4(CCc5sc(N)c(C#N)c54)C3)c1C#N)CCC2: < 10 nM
- N#CNC1CCCN(c2nc(OC[C@@]34CCCN3C[C@H](F)C4)nc(N3CC4(CCc5sc(N)c(C#N)c54)C3)c2F)C1 (stereo partly drawn): 100 to 1000 nM
- N#Cc1c(N2C[C@H]3CC[C@@H](C2)N3)nc(OC[C@@H]2CCN2CC(F)(F)F)nc1N1CC2(CCc3sc(N)c(C#N)c32)C1: 10 to 100 nM
- N#Cc1c(N2C[C@H]3CC[C@@H](C2)N3)nc(OCc2cc(Cl)[nH]n2)nc1N1CC2(CCc3sc(N)c(C#N)c32)C1: < 10 nM
- N#Cc1c(N2C[C@H]3CC[C@@H](C2)N3)nc(OCC2(CN3CCOCC3)CC2(F)F)nc1N1CC2(CCc3sc(N)c(C#N)c32)C1 (stereo partly drawn): < 10 nM
- N#Cc1c(N2C[C@H]3CC[C@@H](C2)N3)nc(OCC2(CN3CCOCC3)CC2)nc1N1CC2(C1)C(=O)CCc1ccccc12: 1000 to 20000 nM
- N#Cc1c(N2CCCCCC2)nc(OC[C@@]23CCCN2C[C@H](F)C3)nc1N1CC2(CCc3sc(N)c(C#N)c32)C1: 10 to 100 nM
